Target: Ybr033w (UniProt P38073)
Sequence: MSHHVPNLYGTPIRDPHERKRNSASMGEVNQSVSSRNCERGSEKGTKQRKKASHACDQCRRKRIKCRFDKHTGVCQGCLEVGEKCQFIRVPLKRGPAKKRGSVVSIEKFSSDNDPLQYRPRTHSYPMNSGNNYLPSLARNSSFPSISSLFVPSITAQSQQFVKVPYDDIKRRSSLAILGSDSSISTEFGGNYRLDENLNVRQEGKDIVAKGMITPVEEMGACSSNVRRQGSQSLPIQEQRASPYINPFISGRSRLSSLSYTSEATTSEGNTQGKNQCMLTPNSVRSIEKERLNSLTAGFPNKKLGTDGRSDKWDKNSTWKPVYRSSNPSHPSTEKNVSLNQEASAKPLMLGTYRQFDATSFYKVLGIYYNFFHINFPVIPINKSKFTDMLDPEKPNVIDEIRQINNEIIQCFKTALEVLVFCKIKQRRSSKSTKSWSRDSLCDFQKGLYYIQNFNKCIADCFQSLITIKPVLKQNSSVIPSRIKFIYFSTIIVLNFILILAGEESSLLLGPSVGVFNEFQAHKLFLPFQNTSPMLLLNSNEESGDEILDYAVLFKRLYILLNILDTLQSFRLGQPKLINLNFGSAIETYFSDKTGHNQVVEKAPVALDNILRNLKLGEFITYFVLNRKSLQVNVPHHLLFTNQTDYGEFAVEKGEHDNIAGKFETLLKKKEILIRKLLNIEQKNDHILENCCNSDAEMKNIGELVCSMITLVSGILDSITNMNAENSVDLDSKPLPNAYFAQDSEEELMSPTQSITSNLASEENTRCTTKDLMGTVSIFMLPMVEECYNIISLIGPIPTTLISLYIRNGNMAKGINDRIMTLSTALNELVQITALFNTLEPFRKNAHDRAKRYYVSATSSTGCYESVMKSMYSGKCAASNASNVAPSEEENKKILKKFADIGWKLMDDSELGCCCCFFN
Assay: PBM E-score (8-mer binding enrichment) (E-score (-0.5 to 0.5)); higher = stronger / more preferred TF binding
Settings: protein concentration: 200 nM; construct: GST-full length
Whole data set: some 33,000 sequences, median “E-score (-0.5 to 0.5)” near -0.012, cut for the highest 2% near 0.29. Only a selection was taken, and the highest values are over-represented in it overall.
Record form. Attribute: PBM E-score. Fill in for each entry.
Could you keep your reply to the number by itself?

Entry under review: AGCATACG . Reported PBM E-score?
-0.0246

Entry under review: CATTCCGA . Reported PBM E-score?
0.15

Entry under review: ACTTCCGA . Reported PBM E-score?
-0.0181

Entry under review: CGGGGTAG . Reported PBM E-score?
-0.177

Entry under review: GATCTGCA . Reported PBM E-score?
-0.215

Entry under review: GATTCCGA . Reported PBM E-score?
0.129

Entry under review: CAGCCGTC . Reported PBM E-score?
-0.0893

Entry under review: AATCTTCA . Reported PBM E-score?
0.318

Entry under review: AGCTTACT . Reported PBM E-score?
0.0872

Entry under review: GAGAGGTA . Reported PBM E-score?
-0.223

Entry under review: AAACACCC . Reported PBM E-score?
0.0312
